Measured values drawn from paper PMC3874162 for this set.

- Target Or Test System: T1, Cdc13-MOB-DBD (Saccharomyces cerevisiae, UniProt P32797 344-694)
- T1 sequence: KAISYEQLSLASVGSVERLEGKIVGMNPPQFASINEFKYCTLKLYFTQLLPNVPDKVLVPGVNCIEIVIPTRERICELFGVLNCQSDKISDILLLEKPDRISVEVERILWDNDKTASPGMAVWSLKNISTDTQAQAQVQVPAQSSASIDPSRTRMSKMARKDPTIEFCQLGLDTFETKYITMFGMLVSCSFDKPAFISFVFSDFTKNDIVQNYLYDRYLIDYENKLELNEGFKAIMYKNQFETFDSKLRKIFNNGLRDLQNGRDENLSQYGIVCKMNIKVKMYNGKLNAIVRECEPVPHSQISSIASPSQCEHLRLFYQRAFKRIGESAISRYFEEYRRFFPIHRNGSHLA
- Test Summary: EMSA
Quantity: pKd
Field pKd (float): negative decimal logarithm of the concentration in molar.

stdin: Would you kindly share the measured pKd for GTGTGGGTGTG (ssDNA) [Tel11] ?
stdout: 11.64
